System: MCF-7
Test: In vitro antiproliferative activity, SRB assay, MCF-7
Assay type: cell-based, human
Conditions: human breast adenocarcinoma MCF-7, 72 h, SRB, mean ± SD; read-out: Antiproliferative activity IC50, MCF-7
pIC50: −log10 of the molar value.
OBSERVATION_TYPE: pIC50

[[record]]
compound = "N.N.[Cl][Pt][Cl] [Cisplatin, cisplatin, reference compound]"
observation_type = "pIC50"
endpoint_value = 5.24


====

System: A549, MCF-7, LoVo, and LoVo/DX cells
Assay: In vitro antiproliferative activity, SRB assay, summary over the tumor cell lines tested
Type: cell-based
Details: Homo sapiens, read-out: IC50, span over all tumor cell lines tested
OBSERVATION_TYPE: IC50

[[record]]
chemical_string = "CNc1ccc2c(cc1=O)[C@@H](NCc1ccccc1Cl)CCc1cc(OC)c(OC)c(OC)c1-2"
tgt = "A549, MCF-7, LoVo, and LoVo/DX cells"
endpoint_value = "0.1 to 1.6 nM"


FYI, the data here is from paper PMC7435877.
